- Read-out: Interleukin-6 (IL6), IL6 (gene 3569)
- assay_remarks: BSK_CASM3C_IL6: BioMAP Diversity Plus: CASM3C Assay for Interleukin-6 (IL6) Biomarker Activity for (AID 2283040)
- stated_conditions: primary human coronary artery smooth muscle cells; actives raise or lower the signal
Activity calls are given as the source filed them. Rule for the calls: active = hit-call score of the fitted dose curve at least 0.9, where 1 is the maximum; inactive = score below 0.9.
// one of class 1 = active, class 0 = inactive, no free text

Cc1cccc2c1ccc1ccccc12; class 0

[ask] Dear colleague, could you share the recorded outcome for CCCCC(CC)C(=O)O (stereo unspecified) when you have a moment?
[reply] class 0

[ask] Dear colleague, could you share the recorded outcome for O=C(CCCN1CCC(O)(c2ccc(Cl)cc2)CC1)c1ccc(F)cc1 when you have a moment?
[reply] class 0
